Assay: Further sandalwood analogues: volatile fatty acid and methane production (Example 7, Table 14)
Assay type: cell-based
Details: 100 μg/ml
measurement-name: TVFA

Please review the entries below; each comes with its answer.
{"compound": "CCC(=CCC1CC=C(C)C1(C)C)CO (stereo not shown) [Bacdanol]", "TVFA": "3448 μmol/g of feed added"}
{"compound": "CC1C2CC(CC2C2CCC(O)CC2)C1(C)C (stereo not shown) [Sandela]", "TVFA": "3289 μmol/g of feed added"}
{"compound": "CC1(CO)CC1CC1CC2CC2(C)C1(C)C (stereo not shown) [Javanol]", "TVFA": "3545 μmol/g of feed added"}
{"compound": "CC1=CCC(C=CC(C)C(C)O)C1(C)C (stereo not shown) [Ebanol]", "TVFA": "3421 μmol/g of feed added"}
{"compound": "CC(=CCC1CC=C(C)C1(C)C)CO (stereo not shown) [Santaliff]", "TVFA": "3305 μmol/g of feed added"}

[ask] Bench note: what TVFA did CCC(=CCC1CC=C(C)C1(C)C)CO (stereo not shown) [Sanjinol] show?
[reply] 3568 μmol/g of feed added

[ask] Bench note: what TVFA did CC1=CCC(CCC(C)C(C)O)C1(C)C (stereo not shown) [Sandalore] show?
[reply] 3023 μmol/g of feed added

###

Recorded measurements of Acetate, one per entry
Experiment: Further sandalwood analogues: volatile fatty acid and methane production (Example 7, Table 14)
Assay type: cell-based
Details: 100 μg/ml

Please review the entries below; each comes with its answer.
{"compound": "CC(=CCC1CC=C(C)C1(C)C)CO (stereo not shown)", "measurement-name": "Acetate", "measured-result": "2301 μmol/g of feed added"}
{"compound": "CC1C2CC(CC2C2CCC(O)CC2)C1(C)C (stereo not shown)", "measurement-name": "Acetate", "measured-result": "2297 μmol/g of feed added"}
{"compound": "CCC(=CCC1CC=C(C)C1(C)C)CO (stereo not shown) [Sanjinol]", "measurement-name": "Acetate", "measured-result": "2359 μmol/g of feed added"}

From here, focus on the item given below.
[ask] Bench note: what Acetate did CCC(=CCC1CC=C(C)C1(C)C)CO (stereo not shown) [Bacdanol] show?
[reply] 2419 μmol/g of feed added

###

Assay: Further sandalwood analogues: volatile fatty acid and methane production (Example 7, Table 14)
Type: cell-based
Details: 5 μg/ml
measurement-name: Methane

Please review the entries below; each comes with its answer.
{"compound": "CC1=CCC(CCC(C)C(C)O)C1(C)C (stereo not shown)", "measurement-name": "Methane", "measured-result": "951 μmol/g of feed added"}
{"compound": "CC1C2CC(CC2C2CCC(O)CC2)C1(C)C (stereo not shown)", "measurement-name": "Methane", "measured-result": "996 μmol/g of feed added"}
{"compound": "CC1=CCC(C=CC(C)C(C)O)C1(C)C (stereo not shown)", "measurement-name": "Methane", "measured-result": "952 μmol/g of feed added"}
{"compound": "CCC(=CCC1CC=C(C)C1(C)C)CO (stereo not shown) [Sanjinol]", "measurement-name": "Methane", "measured-result": "1107 μmol/g of feed added"}
{"compound": "CCC(=CCC1CC=C(C)C1(C)C)CO (stereo not shown) [Bacdanol]", "measurement-name": "Methane", "measured-result": "934 μmol/g of feed added"}

[ask] Bench note: what Methane did CC1(CO)CC1CC1CC2CC2(C)C1(C)C (stereo not shown) show?
[reply] 978 μmol/g of feed added

[ask] Bench note: what Methane did CC(=CCC1CC=C(C)C1(C)C)CO (stereo not shown) show?
[reply] 1031 μmol/g of feed added

###

Assay: Further sandalwood analogues: volatile fatty acid and methane production (Example 7, Table 14)
Type: cell-based
Conditions: 100 μg/ml
measurement-name: Acetate

{"molecule": "CC1=CCC(C=CC(C)C(C)O)C1(C)C (stereo not drawn)", "measured-result": "2430 μmol/g of feed added"}
{"molecule": "CC1(CO)CC1CC1CC2CC2(C)C1(C)C (stereo not drawn)", "measured-result": "2504 μmol/g of feed added"}

From here, focus on the item given below.
[ask] Bench note: what Acetate did CC1=CCC(CCC(C)C(C)O)C1(C)C (stereo not drawn) show?
[reply] 2119 μmol/g of feed added
